- assayedSystem: recombinant human GR (Homo sapiens, UniProt P04150)
- Construct: purchased Panvera/Invitrogen P2812 (kit P2893)
- Sequence (P04150 whole entry): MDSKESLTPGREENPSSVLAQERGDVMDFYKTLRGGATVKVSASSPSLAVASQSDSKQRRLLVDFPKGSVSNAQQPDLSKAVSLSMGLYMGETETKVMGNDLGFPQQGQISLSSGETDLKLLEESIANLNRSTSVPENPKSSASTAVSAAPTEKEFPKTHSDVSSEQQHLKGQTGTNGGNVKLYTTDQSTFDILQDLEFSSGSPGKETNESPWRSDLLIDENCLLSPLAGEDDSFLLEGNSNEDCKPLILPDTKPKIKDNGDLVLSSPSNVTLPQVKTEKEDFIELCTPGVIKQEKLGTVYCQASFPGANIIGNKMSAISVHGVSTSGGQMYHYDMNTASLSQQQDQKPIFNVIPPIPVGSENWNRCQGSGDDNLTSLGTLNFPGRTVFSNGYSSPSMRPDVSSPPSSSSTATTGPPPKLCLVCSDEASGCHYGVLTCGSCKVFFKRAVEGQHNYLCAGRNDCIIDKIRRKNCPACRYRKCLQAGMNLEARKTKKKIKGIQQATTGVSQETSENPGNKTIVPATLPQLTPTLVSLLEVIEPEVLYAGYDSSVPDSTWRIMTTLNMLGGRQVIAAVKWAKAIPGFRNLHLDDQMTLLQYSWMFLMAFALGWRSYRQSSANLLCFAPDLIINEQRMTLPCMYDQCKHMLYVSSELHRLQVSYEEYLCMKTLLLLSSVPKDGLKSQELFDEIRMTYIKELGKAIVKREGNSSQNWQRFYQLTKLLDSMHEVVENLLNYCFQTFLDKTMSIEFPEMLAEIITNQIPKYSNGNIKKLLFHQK
- assayProcedure: Human Glucocorticoid Receptor (GR) Assay (fluorescence polarization, Panvera/Invitrogen kit)
- Assay type: binding
- testConditions: fluorescence polarization; GS Red tracer; 2 hours at room temperature; 100% control 10 μM Dexamethasone; read-out: Inhibition of GR binding, IC50
pIC50: −log10 of the molar value.
measuredAttribute: pIC50

* C[C@]12Cc3cnn(-c4ccc(F)nc4)c3C=C1CC[C@@H]1[C@@H]2[C@@H](O)C[C@@]2(C)[C@H]1CC[C@]2(OC(=O)[C@H]1CCCO1)C(=O)SCCO | 8.64
* COCCC(=O)O[C@]1(C(=O)SCC#N)CC[C@H]2[C@@H]3CCC4=Cc5c(cnn5-c5ccc(F)cc5)C[C@]4(C)[C@H]3[C@@H](O)C[C@@]21C | 8.66
* CCC(=O)O[C@]1(C(=O)SCF)CC[C@H]2[C@@H]3CCC4=Cc5c(cnn5-c5ccc(F)cc5)C[C@]4(C)[C@H]3[C@@H](O)C[C@@]21C | 8.43
